Values were extracted from PubChem BioAssay (NCI).

- System: DU-145 prostate
- test name: NCI tumour cell line growth inhibition, 48 h
Would you kindly list GI50 for each of these compounds?

Example cases with answers are listed next.
compound	property measured	result
CC(=O)N1CCC(Nc2cc(C(=O)NC[C@H](O)CN3CCc4ccccc4C3)ncn2)CC1	GI50	> 100 µM
C[C@]12CCC(=O)CC1CC[C@@H]1C2CC[C@@]2(C)C1CC[C@@H]2OC(=O)CC[Se][Se]CCC(=O)O[C@H]1CCC2[C@@H]3CCC4CC(=O)CC[C@]4(C)C3CC[C@@]21C (stereo partly drawn)	GI50	2.19 µM
CC1OC(OC2C(O)CC(OC3C(O)CC(OC4CCC5(C)C(CCC6C5CCC5(C)C(C7=CC(=O)OC7)CCC65O)C4)OC3C)OC2C)CC(O)C1O (stereo not drawn)	GI50	< 0.012 µM
C=C1C(=O)O[C@H]2[C@H]1CC/C(COC(=O)/C=C\C(=O)NCc1ccc(Cn3c(=O)sn(CCCI)c3=O)cc1)=C\CC[C@@]1(C)O[C@@H]21	GI50	0.654 µM

Provide reported GI50 for each item, in the same order as listed.
1. C=C1C(=O)O[C@H]2[C@H]1CC/C(COC(=O)CCSSCCC(=O)OC/C1=C/CC[C@@]3(C)O[C@H]3[C@H]3OC(=O)C(=C)[C@@H]3CC1)=C\CC[C@@]1(C)O[C@@H]21
2. CC(C)OC(=O)c1cc(NS(=O)(=O)c2ccc3ccccc3c2)cc(C(=O)OC(C)C)c1
3. O=C(N/N=C(\CN1CCN(c2cc3[nH]cc(C(=O)O)c(=O)c3cc2F)CC1)c1ccc(Cl)cc1)c1ccncc1
4. COc1cc(-c2csc(NC(=O)Nc3ccc(Cl)c(C(F)(F)F)c3)n2)cc(OC)c1OC
5. Cc1cc(C2CC(O)C(CO)O2)c(Cl)cc1Cl (stereo not drawn)

1. 1.3 µM
2. 28.8 µM
3. 36 µM
4. 1.79 µM
5. > 100 µM
